Target: CCR2 (Homo sapiens (Human), UniProt P41597)
Sequence (P41597 whole entry, species assumed): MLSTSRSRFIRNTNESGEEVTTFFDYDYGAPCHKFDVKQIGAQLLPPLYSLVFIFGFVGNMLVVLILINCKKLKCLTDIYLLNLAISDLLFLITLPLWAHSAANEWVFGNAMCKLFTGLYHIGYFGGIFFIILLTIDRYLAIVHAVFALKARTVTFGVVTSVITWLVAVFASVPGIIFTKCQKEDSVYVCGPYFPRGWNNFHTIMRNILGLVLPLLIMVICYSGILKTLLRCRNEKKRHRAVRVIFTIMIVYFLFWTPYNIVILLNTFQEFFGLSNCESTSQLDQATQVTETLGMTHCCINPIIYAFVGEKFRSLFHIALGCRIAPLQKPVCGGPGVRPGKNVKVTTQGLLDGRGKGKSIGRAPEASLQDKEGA
Test: Calcium activity assayed on the FLIPR Tetra in HEK-Gqi5 cells stably expressing CCR2
Assay type: cell-based
Conditions: FLIPR Tetra calcium assay
Method: HEK-Gqi5 cells stably expressing CCR2 were cultured in (DMEM high glucose, 10% FBS, 1% PSA, 400 μg/ml geneticin and 50 μg/ml hygromycin. Appropriate positive control chemokines (MCP-1, MIP1A or RANTES) was used as the positive control agonist for screening compound-induced calcium activity assayed on the FLIPR^Tetra. The drug plates were prepared in 384-well microplates using the EP3 and the MuItiPROBE robotic liquid handling systems. Compounds were synthesized and tested for CCR^2 activity.
Please go through the items and note down their CCR2 % ANTAGONISM.
Only the number, expressed in %, is required.

Retrieve CCR2 % ANTAGONISM measured for O=[N+]([O-])c1cccc([S+]([O-])c2ccc(Cl)cc2NS(=O)(=O)c2ccc(Cl)c(C(F)(F)F)c2)c1 (stereo not drawn) and print it.
85

Retrieve CCR2 % ANTAGONISM measured for CN(C)C(=O)CCCS(=O)(=O)c1ccc(Cl)cc1NS(=O)(=O)c1cc2ccccc2o1 and print it.
98

Retrieve CCR2 % ANTAGONISM measured for Nc1cccc(CS(=O)(=O)c2ccc(Cl)cc2NS(=O)(=O)c2ccc(F)cc2F)c1 and print it.
89

Retrieve CCR2 % ANTAGONISM measured for CSc1ccc(Cl)cc1NS(=O)(=O)c1ccc(I)cc1 and print it.
71

Retrieve CCR2 % ANTAGONISM measured for CS(=O)(=O)c1ccc(Cl)cc1NS(=O)(=O)c1ccc(Cl)cc1 and print it.
98

Retrieve CCR2 % ANTAGONISM measured for Nc1cccc(CSc2ccc(Cl)cc2NS(=O)(=O)c2ccc(Cl)cc2)c1 and print it.
95
